assayed_target: T1, Myo5, Q04439
T1 sequence (Q04439 1072-1160, looked up): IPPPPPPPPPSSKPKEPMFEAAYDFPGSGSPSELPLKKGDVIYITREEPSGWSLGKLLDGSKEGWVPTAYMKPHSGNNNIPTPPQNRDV
assay_name: SPOT array
condition_notes: median of control spots 471
readout_type: SPOT intensity
Answers are plain numbers.

For orientation, consider the following solved cases.
>  <binder>
PLQSKIPMLPSRRTM

>  <measured_number>
35

$$$$
>  <binder>
NHSRSLFSLPGNQQS

>  <measured_number>
1

$$$$
>  <binder>
LKQRFFLMFPKSIIW

>  <measured_number>
0

$$$$

## Input Record request: SPOT intensity value, item "EREKALPPIPFTTTL"
## Output 0
